- System: U-251
- method description: NCI tumour cell line growth inhibition, 48 h
Calls of active or inactive are those of the source. No stated cut-off is given here; in the data, active = GI50 up to about 1.1 µM and inactive = higher.
Bench note: report the call from active, inactive

* COc1cc(-c2nccc3cc(OC)c(OC)cc23)ccc1O | inactive

Would you mind telling me which call this test gave `Cc1c(Cl)nc(Nc2nc3ccccc3[nH]2)nc1Cl` ? inactive

Now try `Cc1ccc(S(=O)(=O)N/C(=N\O)Nc2ccc(Cl)c(Cl)c2)cc1` . inactive

Now try `Nc1ccc2c(=S)c3ccccc3[nH]c2c1` . inactive

----------
- System: SK-OV-3
- method description: NCI tumour cell line growth inhibition, 48 h
Activity calls are given as the source filed them. Rule as the data show it: active = GI50 up to about 1.1 µM and inactive = higher. Where a SMILES comes first, the peptide text is derived from it. Bridges are numbered along the chain shown (N, C = ends). [ ]: non-standard residue; d: D form. The star is where a group is joined. ξ: configuration not given here. ξNMePhe(4-NMe2) = CNC(Cc1ccc(N(C)C)cc1)C(=O)O; Picolinoyl(3-OH) = O=C(c1ncccc1O)*; ξPip(4-oxo) = O=C1CCNC(C(=O)O)C1; Phg = N[CH](C(=O)O)c1ccccc1; Abu = CC[CH](N)C(=O)O
Bench note: report the call from yes (1) for active, no (0) for inactive

Please review the entries below; each comes with its answer.
• CCOC(=O)c1c(NC(=O)Nc2ccccc2)c(C(N)=O)c2n1CCCCC2 = no (0)
• CC1=C/C(O)CC(=O)Cc2nc(co2)C(=O)N2CCC=C2C(=O)OC(C(C)C)C(C)/C=C/C(=O)NC\C=C\1.CCC1NC(=O)C(NC(=O)c2ncccc2O)C(C)OC(=O)C(c2ccccc2)NC(=O)C2CC(=O)CCN2C(=O)C(Cc2ccc(N(C)C)cc2)N(C)C(=O)C2CCCN2C1=O (stereo not drawn) ({Picolinoyl(3-OH)}-T[Abu]P[ξNMePhe(4-NMe2)][ξPip(4-oxo)][Phg]; ester 1-C; configuration not given here) = no (0)
• O=c1[nH]c2ccc(CC(=S)N3CCN(c4ccccc4)CC3)cc2o1 = no (0)

Would you mind telling me which call this test gave `NC(N)=NCc1ccc2c(c1)OCO2` ? no (0)

Now try `CC(C)COC1Sc2ccccc2S1` . no (0)

Now try CC(C)[C@H](C)/C=C/[C@@H](C)C1CC[C@H]2[C@@]34C=C[C@]5(C[C@@H](O)CC[C@]5(C)[C@H]3CC[C@]12C)OO4 (stereo partly drawn) . no (0)

Now try `COC(=O)[C@]12CCC(C)(C)C[C@H]1[C@H]1C(=O)C=C3[C@@]4(C)C=C(C#N)C(=O)C(C)(C)[C@@H]4CC[C@@]3(C)[C@]1(C)CC2` . yes (1)

Now try `COC(=O)c1c/c(=N\NC(=O)CC(=O)Nc2ccccc2Cl)c2ccccc2o1` . no (0)
